B1: TPPP (parent)
chain: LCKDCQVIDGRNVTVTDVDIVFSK

variants of: B1; assay: protein stability index of a GFP-peptide fusion (GPS, HEK-293T) (PSI 1-6); higher = more stable; settings: c terminus: a fixed tail appended;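 note: lentivirally expressed fusions sorted by FACS into six bins by GFP to DsRed ratio, PSI derived from sequencing read proportions per bin multiplied by bin number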
Label condition not met if protein stability index falls below 3; label condition met in every other case.

# Mutation key, Assigned label
records = [
    ("C5F", "condition not met"),
    ("V15K", "condition not met"),
    ("R11S", "condition not met"),
    ("I8S", "condition not met"),
    ("R11C", "condition not met"),
    ("V21Q", "condition not met"),
    ("T16D", "condition met"),
    ("V18T", "condition met"),
    ("C2A", "condition met"),
    ("R11W", "condition not met"),
    ("C5N", "condition met"),
    ("D17I", "condition met"),
    ("I20N", "condition met"),
    ("G10L", "condition not met"),
    ("V21I", "condition not met"),
    ("S23E", "condition met"),
    ("V15L", "condition not met"),
    ("V7D", "condition met"),
    ("D4S", "condition not met"),
    ("R11M", "condition not met"),
    ("F22R", "condition met"),
]
